Property name: melting point

COC(=O)c1ccc(-c2ccc(-c3ccccc3)c(-c3ccc4c(c3)C(C)(C)CCC4(C)C)c2)cc1O; 134 to 136 °C
Cc1cc(C(F)(F)F)nn1CC(=O)N1CCC(C(N)=S)CC1; 185 to 186 °C
N#Cc1c2c(cc3ccc(O)cc13)-c1ccc(O)cc1CO2; > 280 °C
CCOC(=O)c1ccc(OCc2ccc3c(c2)C(C)(C)CCC3(C)C)cc1; 109 to 111 °C

Continue with the compound presented below.
Exam item: Read off the recorded melting point for C#CCNC(=C[N+](=O)[O-])SC
Marked response: 131 to 132 °C

* * *

# melting point per record follows

CCOC(=O)COc1ccc(NC(=O)OC(C)(C)C)cc1OC; 81 to 83 °C
COc1ccccc1C=C1CCc2c1oc1ccc(C(=O)O)cc1c2=O; 273 to 275 °C
O=C1CC(O)CC(/C=C/c2c(Cl)cc(Cl)cc2OCc2ccccc2)O1 (stereo unspecified); 109 to 112 °C

Exam item: Check the records and state melting point for O=C(Oc1ccc(F)cc1)c1ccccc1
Marked response: 48 to 50 °C

Exam item: Using the record for c1ccc(CN2CCC3(C2)OC(c2ccccc2)c2ccccc23)cc1 (stereo unspecified) , state its measured melting point.
Marked response: 85 to 87 °C
